measured-target: acetylcholine receptor
method-notes: SPR, AchR immobilized on CM5 chip, peptide at 10 uM
Label met when Binding affinity (RU) is strictly below 30 RU; otherwise label not met.

binder: KKSFR [5mer-1037]
class-name: met
--
binder: RLLQRR [6mer-2-356]
class-name: not met
--
binder: KFEMK [5mer-1043]
class-name: met

Record KKNPWK [6mer-1-831] : is its Binding affinity (RU) strictly below 30 RU?
met

Is 30 RU strictly greater than the binder's reported Binding affinity (RU)? binder: KQFQKK [6mer-2-337]
not met

Lab note: confirm whether the reported Binding affinity (RU) for this binder is below 30 RU, equality not counting. binder: KKCAVK [6mer-1-801]
met

Check if Binding affinity (RU) falls below 30 RU for KWQSKR [6mer-2-386] .
not met

Binding affinity (RU) strictly < 30 RU for this binder? KCDNK [5mer-1010]
met

Just wondering, is Binding affinity (RU) of RKHWWR [6mer-1-860] below 30 RU?
met

Dear reviewer, please state whether RMTVK [5mer-746] has Binding affinity (RU) strictly beneath 30 RU.
met

Record RVVQKK [6mer-2-375] : is its Binding affinity (RU) strictly below 30 RU?
not met
